pIC50: −log10 of the molar value.
Values of pIC50 for UniProt O00763, collected from a number of published sources:
measured quantity: pIC50

* CCNC(=O)C(C)c1ccc(O[C@@H]2CCN(c3ccc(F)c(C)n3)C2)cc1 (some centres unmarked) | 6.25
* CC(=O)NC(C)Cc1ccc(C#Cc2cccc(OC(F)F)c2)cc1 (centres unmarked) | 5.31
* CC(C(=O)NCC(F)(F)F)c1ccc(O[C@@H]2CCN(c3nc(N(C)C)ncc3F)C2)cc1 (some centres unmarked) | 6.13
* CC(=O)Nc1nc(C)c(C(=O)N[C@@H](C)c2ccc(O[C@@H]3CCN(c4ccnc(OC(C)C)c4)C3)cc2)s1 | 6.75
* C[C@H](NC(=O)N(C)C)c1ccc(OC2CCN(c3ccc(OCC4CC4(F)F)cn3)C2)cc1 (some centres unmarked) | 6.85

P = COc1c(N2CC[C@@H](Oc3ccc([C@H](C)NC(C)=O)cc3)C2)ccnc1OCC(C)(C)O
Q = COCCN(C)c1ncc(C#Cc2ccc(CC(C)NC(C)=O)cc2)cn1 (centres unmarked)
query: Param pair: P , Q . Output: the one whose pIC50 is numerically greater. Please reply using the label of the selected record.
result: P
